test: Intrinsic clearance in beagle dog liver microsomes at 0.2 uM in presence of NADPH generating system by LC/MS/MS method; type: ADME, Canis lupus familiaris; conditions: read-out: CLH
measurement_type: CLint scaled at 0.2 µM

N#Cc1ccc(N2CC[C@@H](Nc3c(C(N)=O)cnc4[nH]ccc34)[C@@H](F)C2)nc1 = 18.8 mL/min/kg

---

target: Angiopoietin-1 receptor (Homo sapiens)
Sequence (Q02763 whole entry): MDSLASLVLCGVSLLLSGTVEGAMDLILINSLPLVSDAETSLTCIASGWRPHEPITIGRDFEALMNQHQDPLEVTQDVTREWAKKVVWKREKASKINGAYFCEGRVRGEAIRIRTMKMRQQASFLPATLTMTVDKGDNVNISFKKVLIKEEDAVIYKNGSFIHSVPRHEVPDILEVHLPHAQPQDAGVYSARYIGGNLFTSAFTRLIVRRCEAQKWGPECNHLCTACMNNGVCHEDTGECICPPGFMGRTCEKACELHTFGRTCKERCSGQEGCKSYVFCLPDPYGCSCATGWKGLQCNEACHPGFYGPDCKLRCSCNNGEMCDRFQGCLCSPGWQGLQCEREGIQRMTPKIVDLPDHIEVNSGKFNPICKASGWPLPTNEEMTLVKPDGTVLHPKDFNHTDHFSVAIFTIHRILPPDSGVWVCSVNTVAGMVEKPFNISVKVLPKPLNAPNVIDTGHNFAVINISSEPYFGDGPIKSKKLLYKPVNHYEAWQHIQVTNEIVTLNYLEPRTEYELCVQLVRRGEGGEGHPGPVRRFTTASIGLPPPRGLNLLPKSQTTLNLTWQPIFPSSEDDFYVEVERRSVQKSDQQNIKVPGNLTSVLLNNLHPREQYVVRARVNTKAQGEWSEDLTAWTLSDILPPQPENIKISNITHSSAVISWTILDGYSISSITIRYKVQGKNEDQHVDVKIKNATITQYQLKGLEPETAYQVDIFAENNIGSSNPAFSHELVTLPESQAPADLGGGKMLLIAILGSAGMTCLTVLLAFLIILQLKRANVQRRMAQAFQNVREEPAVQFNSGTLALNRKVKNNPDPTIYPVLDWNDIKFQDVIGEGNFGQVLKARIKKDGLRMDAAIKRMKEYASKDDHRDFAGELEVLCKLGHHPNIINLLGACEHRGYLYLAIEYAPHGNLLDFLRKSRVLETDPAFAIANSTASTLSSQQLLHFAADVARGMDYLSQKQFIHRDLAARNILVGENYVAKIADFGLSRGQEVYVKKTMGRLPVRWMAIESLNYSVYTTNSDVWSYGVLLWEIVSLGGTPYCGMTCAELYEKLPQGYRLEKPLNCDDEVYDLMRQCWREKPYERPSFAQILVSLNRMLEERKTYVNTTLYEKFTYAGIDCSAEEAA
pIC50: −log10 of the molar value.
measurement_type: pIC50

N#Cc1ccc(N2CC[C@@H](Nc3c(C(N)=O)cnc4[nH]ccc34)[C@@H](F)C2)nc1 = < 6.00

---

test: Cmax in beagle dog at 3 mg/kg, po by LC/MS/MS method; assay type: ADME, organism-based, Canis lupus familiaris; set-up: dose 3 mg/kg, route oral; settings: in vivo
measurement_type: Cmax

N#Cc1ccc(N2CC[C@@H](Nc3c(C(N)=O)cnc4[nH]ccc34)[C@@H](F)C2)nc1 = 666 ng/mL

---

assay: Cmax in cynomolgus monkey at 3 mg/kg, po by LC/MS/MS method; type: ADME, organism-based, Macaca fascicularis; set-up: dose 3 mg/kg, route oral; conditions: in vivo
measurement_type: Cmax (ng/mL)

N#Cc1ccc(N2CC[C@@H](Nc3c(C(N)=O)cnc4[nH]ccc34)[C@@H](F)C2)nc1 = 684

---

target: Tyrosine-protein kinase JAK3 (Homo sapiens)
Sequence (P52333 whole entry): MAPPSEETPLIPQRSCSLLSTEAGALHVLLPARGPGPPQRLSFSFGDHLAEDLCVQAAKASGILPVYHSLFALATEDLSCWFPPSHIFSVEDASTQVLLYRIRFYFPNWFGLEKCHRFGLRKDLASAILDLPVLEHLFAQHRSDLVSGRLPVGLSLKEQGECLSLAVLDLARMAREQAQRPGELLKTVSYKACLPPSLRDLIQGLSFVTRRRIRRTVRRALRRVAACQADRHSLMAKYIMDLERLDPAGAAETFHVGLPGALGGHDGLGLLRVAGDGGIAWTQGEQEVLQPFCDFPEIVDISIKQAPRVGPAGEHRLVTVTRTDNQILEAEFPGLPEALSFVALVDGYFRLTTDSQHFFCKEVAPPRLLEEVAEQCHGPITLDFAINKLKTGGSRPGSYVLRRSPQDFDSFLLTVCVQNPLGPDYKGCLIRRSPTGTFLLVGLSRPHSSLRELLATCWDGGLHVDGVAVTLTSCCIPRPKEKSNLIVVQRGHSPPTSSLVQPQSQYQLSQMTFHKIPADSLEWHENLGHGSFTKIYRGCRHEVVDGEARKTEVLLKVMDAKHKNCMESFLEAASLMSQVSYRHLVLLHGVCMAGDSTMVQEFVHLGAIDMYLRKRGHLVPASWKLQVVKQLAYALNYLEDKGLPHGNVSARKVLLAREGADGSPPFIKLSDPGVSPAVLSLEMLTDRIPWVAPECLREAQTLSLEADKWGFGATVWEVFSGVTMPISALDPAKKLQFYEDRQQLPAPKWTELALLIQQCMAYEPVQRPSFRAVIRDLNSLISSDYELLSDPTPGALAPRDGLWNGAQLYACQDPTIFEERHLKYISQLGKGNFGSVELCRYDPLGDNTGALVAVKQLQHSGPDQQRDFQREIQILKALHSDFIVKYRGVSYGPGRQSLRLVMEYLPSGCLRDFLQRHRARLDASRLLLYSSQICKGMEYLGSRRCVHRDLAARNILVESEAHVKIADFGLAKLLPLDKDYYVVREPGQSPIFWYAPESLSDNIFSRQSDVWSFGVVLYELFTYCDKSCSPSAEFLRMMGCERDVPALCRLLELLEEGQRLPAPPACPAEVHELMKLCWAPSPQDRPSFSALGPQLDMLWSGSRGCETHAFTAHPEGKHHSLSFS
IC50 strictly under 50 nM means True; at 50 nM or over means False.

N#CCC(=O)N1CCC(Nc2c(C(N)=O)cnc3[nH]ccc23)CC1 = True
N#Cc1ccc(N2CCC(Nc3c(C(N)=O)cnc4[nH]ccc34)CC2)nc1 = True
CN1CCC(Nc2c(C(N)=O)cnc3[nH]ccc23)CC1 = False
NC(=O)c1cnc2[nH]ccc2c1NC1CCN(c2ccc(CO)cn2)CC1 = True
NC(=O)c1cnc2[nH]ccc2c1N[C@@H]1CCCN(Cc2ccccc2)C1 = False
C[C@H]1CN(c2ccc(C#N)cn2)CC[C@H]1Nc1c(C(N)=O)cnc2[nH]ccc12 (relative stereo) = True
C[C@@H]1CCCC[C@@H]1Nc1c(C(N)=O)cnc2[nH]ccc12 = True
NC(=O)c1cnc2[nH]ccc2c1NC1CCN(c2ccc(C(F)(F)F)cn2)CC1 = True

---

molecular target: Rho-associated protein kinase 1 (Homo sapiens)
Sequence (Q13464 whole entry): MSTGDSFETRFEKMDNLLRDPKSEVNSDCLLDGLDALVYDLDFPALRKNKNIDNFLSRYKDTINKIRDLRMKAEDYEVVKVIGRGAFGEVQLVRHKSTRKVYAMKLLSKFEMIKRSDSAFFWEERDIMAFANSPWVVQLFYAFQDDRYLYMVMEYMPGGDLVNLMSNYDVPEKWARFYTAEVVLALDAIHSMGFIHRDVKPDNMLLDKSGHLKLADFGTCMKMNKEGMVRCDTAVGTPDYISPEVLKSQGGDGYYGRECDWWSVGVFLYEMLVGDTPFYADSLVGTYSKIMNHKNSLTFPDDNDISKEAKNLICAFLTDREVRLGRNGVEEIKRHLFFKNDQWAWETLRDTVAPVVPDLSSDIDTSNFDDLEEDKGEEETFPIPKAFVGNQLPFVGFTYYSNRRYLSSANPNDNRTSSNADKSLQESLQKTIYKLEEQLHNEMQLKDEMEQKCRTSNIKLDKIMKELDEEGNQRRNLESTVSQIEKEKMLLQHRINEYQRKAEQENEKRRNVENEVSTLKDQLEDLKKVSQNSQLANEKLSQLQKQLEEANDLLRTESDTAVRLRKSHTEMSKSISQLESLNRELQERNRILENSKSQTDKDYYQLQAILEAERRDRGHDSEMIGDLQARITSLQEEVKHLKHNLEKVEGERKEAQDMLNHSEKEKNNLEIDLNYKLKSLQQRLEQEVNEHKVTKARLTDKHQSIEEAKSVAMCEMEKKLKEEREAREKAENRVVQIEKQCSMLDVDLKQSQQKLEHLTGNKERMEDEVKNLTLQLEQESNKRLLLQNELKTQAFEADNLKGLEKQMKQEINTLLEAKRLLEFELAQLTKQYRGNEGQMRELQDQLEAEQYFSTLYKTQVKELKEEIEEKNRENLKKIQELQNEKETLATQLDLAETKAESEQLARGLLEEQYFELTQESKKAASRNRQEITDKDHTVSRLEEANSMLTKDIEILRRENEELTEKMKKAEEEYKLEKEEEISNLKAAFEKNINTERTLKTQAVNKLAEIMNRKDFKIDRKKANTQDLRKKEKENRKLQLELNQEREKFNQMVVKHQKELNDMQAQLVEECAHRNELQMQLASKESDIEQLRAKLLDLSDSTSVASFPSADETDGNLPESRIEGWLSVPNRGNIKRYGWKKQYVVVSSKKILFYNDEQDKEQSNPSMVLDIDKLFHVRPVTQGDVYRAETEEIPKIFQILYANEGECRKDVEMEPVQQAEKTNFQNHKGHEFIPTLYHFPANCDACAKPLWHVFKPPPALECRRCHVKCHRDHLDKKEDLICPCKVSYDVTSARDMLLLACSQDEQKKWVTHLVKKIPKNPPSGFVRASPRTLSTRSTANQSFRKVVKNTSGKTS
measurement_type: IC50 (nM)

N#Cc1ccc(N2CC[C@@H](Nc3c(C(N)=O)cnc4[nH]ccc34)[C@@H](F)C2)nc1 = 190

---

experiment: Intrinsic clearance in human liver microsomes at 0.2 uM in presence of NADPH generating system by LC/MS/MS method; assay type: ADME; conditions: read-out: CLH
measurement_type: CLint scaled at 0.2 µM (mL/min/kg)

N#Cc1ccc(N2CC[C@@H](Nc3c(C(N)=O)cnc4[nH]ccc34)[C@@H](F)C2)nc1 = 4.8

---

test: Tmax in Sprague-Dawley rat at 3 mg/kg, po by LC/MS/MS method; type: ADME, organism-based; conditions: in vivo
measurement_type: Tmax (h)

N#Cc1ccc(N2CC[C@@H](Nc3c(C(N)=O)cnc4[nH]ccc34)[C@@H](F)C2)nc1 = 3.3

---

assay: Effective permeability of the compound at pH 7.4 by PAMPA method; format: physicochemical; settings: read-out: Peff
measurement_type: Papp (×10⁻⁶ cm/s)

N#Cc1ccc(N2CC[C@@H](Nc3c(C(N)=O)cnc4[nH]ccc34)[C@@H](F)C2)nc1 = 9
N#Cc1ccc(N2CC[C@H](Nc3c(C(N)=O)cnc4[nH]ccc34)[C@H](F)C2)nc1 = 5
N#Cc1ccc(N2CCC(Nc3c(C(N)=O)cnc4[nH]ccc34)CC2)nc1 = 26

Source listed as ChEMBL document CHEMBL3593212.
